These entries and their values trace back to BindingDB's records for doi:10.1021/jm010384j.

- assayed-system: Sigma non-opioid intracellular receptor 1 (Cavia porcellus)
- experiment-summary: Binding affinity for sigma 1 opioid receptor, measured on guinea pig brain membranes using [3H]- (+)-pentazocine as radioligand
measured-parameter: Ki (nM)
The reply should be a number in nM, with the unit left off.

Form field: Ki recorded for O=C(Cc1cccs1)NC1CCN(Cc2ccccc2)CC1 with Sigma non-opioid intracellular receptor 1 (Cavia porcellus) (enter value)
3.93

====

- assayed-system: Sigma non-opioid intracellular receptor 1 (Cavia porcellus)
- experiment-summary: Binding affinity for sigma 1 opioid receptor, measured on guinea pig brain membranes using [3H]- (+)-pentazocine as radioligand
Recorded Ki values for a group of compounds are listed next.
Form entry: value (nM) — number only.

Ki lookup needed for O=C(Cc1cccc(F)c1)NC1CCN(Cc2ccc(F)cc2)CC1 , thanks.
5.51

Next: O=C(Cc1ccccc1)NC1CCN(Cc2ccc(F)cc2)CC1
6.59

Try this compound too: O=C(Cc1ccccc1)NC1CCN(Cc2ccc(F)c(F)c2)CC1
6.3

Next record, please: O=C(Cc1cccnc1)NC1CCN(Cc2ccccc2)CC1
269

Another: O=C(Cc1cccc2ccccc12)NC1CCN(Cc2ccccc2)CC1
4.64

====

pKi values by entry
- assayed-system: Sigma non-opioid intracellular receptor 1 (Cavia porcellus) (UniProt Q60492)
- Sequence (Q60492 whole entry, looked up): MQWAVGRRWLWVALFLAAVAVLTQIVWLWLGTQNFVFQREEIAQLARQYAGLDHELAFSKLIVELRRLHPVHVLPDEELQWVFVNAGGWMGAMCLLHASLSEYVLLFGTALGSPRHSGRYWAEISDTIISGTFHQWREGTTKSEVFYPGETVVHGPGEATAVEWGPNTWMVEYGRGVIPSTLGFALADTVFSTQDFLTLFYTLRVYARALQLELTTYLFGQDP
- experiment-summary: Binding affinity for sigma 1 opioid receptor, measured on guinea pig brain membranes using [3H]- (+)-pentazocine as radioligand
Value format note: pKi is -log10 of concentration (mol/L); just state the number.

The following compounds have reported results that may help.
O=C(Cc1ccccc1)NC1CCN(Cc2ccc([N+](=O)[O-])cc2)CC1 :: 7.72
O=C(Cc1ccccc1)NC1CCN(Cc2ccc(C(F)(F)F)cc2)CC1 :: 7.06
O=C(Cc1ccccc1)NC1CCN(CCc2ccccc2)CC1 :: 7.51
O=C(Cc1c[nH]c2ccc(Br)cc12)NC1CCN(Cc2ccccc2)CC1 :: 7.28
O=C(Nc1cccc2ccccc12)NC1CCN(Cc2ccccc2)CC1 :: 7.64

Let's switch to this compound now.
Fill blank: measured pKi of the compound COc1ccc2c(c1)C(CC(=O)NC1CCN(Cc3ccccc3)CC1)CC2=O (stereo unspecified) is ____.
6.52

====

Reported Ki values for a set of compounds
- assayed-system: Sigma non-opioid intracellular receptor 1 (Cavia porcellus)
- experiment-summary: Binding affinity for sigma 1 opioid receptor, measured on guinea pig brain membranes using [3H]- (+)-pentazocine as radioligand
Write the value in nM as a bare number.

Consider the following illustrative entries.
O=C(Cc1ccncc1)NC1CCN(Cc2ccccc2)CC1 :: 298
O=C(Cc1cccc(Cl)c1)NC1CCN(Cc2cccc(I)c2)CC1 :: 2.31
O=C(Cc1ccccc1)NC1CCN(Cc2ccc(I)cc2)CC1 :: 9.03

Endpoint output: Ki of O=C(Cc1cccc(Br)c1)NC1CCN(Cc2ccc(I)cc2)CC1 . Value?
1.78

// query: O=C(Cc1ccccc1F)NC1CCN(Cc2ccc(I)cc2)CC1
4.2

Would you kindly repeat that for COc1ccc2[nH]cc(CC(=O)NC3CCN(Cc4ccccc4)CC3)c2c1 ?
125

====

- assayed-system: Sigma non-opioid intracellular receptor 1 (Cavia porcellus) (UniProt Q60492)
- experiment-summary: Binding affinity for sigma 1 opioid receptor, measured on guinea pig brain membranes using [3H]- (+)-pentazocine as radioligand
measured-parameter: Ki

O=C(Cc1ccc(I)cc1)NC1CCN(Cc2ccccc2)CC1 :: 13.8 nM
O=C(Cc1ccccc1F)NC1CCN(Cc2cccc(I)c2)CC1 :: 15.4 nM
O=C(Cc1ccccc1F)NC1CCN(Cc2ccc(F)cc2)CC1 :: 3.15 nM
O=C(Cc1ccccn1)NC1CCN(Cc2ccccc2)CC1 :: 236 nM
O=C(Cc1cccc(Br)c1)NC1CCN(Cc2ccc(F)cc2)CC1 :: 1.21 nM
O=C(CSc1ncccn1)NC1CCN(Cc2ccccc2)CC1 :: 150 nM
O=C(Cc1ccccc1)NC1CCN(Cc2cccc(I)c2)CC1 :: 6.75 nM
O=C(Cc1ccccc1)NC1CCN(Cc2ccc3ccccc3c2)CC1 :: 23.9 nM
O=C(Cc1cccc(Br)c1)NC1CCN(Cc2cccc(I)c2)CC1 :: 3.49 nM
O=C(Cc1cccc(F)c1)NC1CCN(Cc2ccc(I)cc2)CC1 :: 2.25 nM

Quick one: Ki of O=C(Cc1ccsc1)NC1CCN(Cc2ccccc2)CC1 ?
7.2 nM

Same read-out for O=C(Cc1cnc[nH]1)NC1CCN(Cc2ccccc2)CC1 ?
248 nM

Repeat with O=C(Cc1ccccc1)NC1CCN(Cc2cccc(C(F)(F)F)c2)CC1
141 nM

Request: O=C(Cc1cccc(Cl)c1)NC1CCN(Cc2ccc(F)cc2)CC1
1.15 nM

Next: O=C(Cc1cccc(F)c1)NC1CCN(Cc2cccc(I)c2)CC1
4.29 nM

Repeat with O=C(Cc1ccccc1)NC1CCN(Cc2cccc(F)c2)CC1
8.22 nM

Try O=C(Cc1cccc(Cl)c1)NC1CCN(Cc2ccc(I)cc2)CC1 next.
3.21 nM

Now consider O=C(Cc1ccccc1)NC1CCN(Cc2ccccc2I)CC1 .
347 nM

Same thing, different molecule: O=C(Cc1c[nH]c2ccccc12)NC1CCN(Cc2ccccc2)CC1
10.9 nM

Repeat for the following molecule: O=C1C=CC2C(CC(=O)NC3CCN(Cc4ccccc4)CC3)=CC(=O)OC2C1 (stereo not drawn)
> 1000 nM

Queued: O=C(Cc1ccccc1)NC1CCN(Cc2ccccc2F)CC1
10.2 nM

What do you have for O=C(Cc1ccccc1)NC1CCN(Cc2ccc(Cl)c(Cl)c2)CC1 ?
7.24 nM

Let us now turn to O=C(Cc1ccc2ccccc2c1)NC1CCN(Cc2ccccc2)CC1
61.8 nM
